Organism: Rattus norvegicus
Protocol details: DrugMatrix - Regimen: Daily Repeat
Assay type: toxicity, organism-based, Sprague-Dawley
Parameters: regimen Daily Repeat, gender Male, age 6-8 weeks
Test conditions: in vivo, sc, 0 mg/kg, 72 h, tissue Blood, route subcutaneous, dose level Control, time 3 day, […]
Quick list: ABSOLUTE SEGMENTED NEUTROPHIL per entry.
Just the number in CELLS/uL, nothing appended.

1) CCC(=O)O[C@]1(C(=O)CCl)[C@@H](C)C[C@H]2[C@@H]3CCC4=CC(=O)C=C[C@]4(C)[C@@]3(F)[C@@H](O)C[C@@]21C [CLOBETASOL PROPIONATE]	2193.83
2) CC(C)(C)CC(C)(C)c1ccc(OCCOCC[N+](C)(C)Cc2ccccc2)cc1.[Cl-] [BENZETHONIUM CHLORIDE]	1320.5
3) Oc1c(Cl)cc(Cl)c(Cl)c1Cc1c(O)c(Cl)cc(Cl)c1Cl	1320.5

**Q:** Which value of ABSOLUTE SEGMENTED NEUTROPHIL has been reported for CCN(CC)CCOCCC1=CCC2CC1C2(C)C (stereo not given) in the records?
**A:** 1057

**Q:** Which value of ABSOLUTE SEGMENTED NEUTROPHIL has been reported for `O=C(Nc1ccc(Br)cc1)c1cc(Br)cc(Br)c1O` in the records?
**A:** 2193.83

====

Species: Rattus norvegicus
Type: toxicity, organism-based, Sprague-Dawley
Test conditions: in vivo, sc, 2 mg/kg, 24 h, tissue Blood, route mini-PUMP - SUBCUTANEOUS, dose level High, time 1 day, vehicle 100 % SALINE
Description: DrugMatrix - Regimen: Single
Endpoint name: ABSOLUTE BASOPHIL (cells/µL)
Just the number in cells/µL, nothing appended.

**Q:** Which value of ABSOLUTE BASOPHIL has been reported for CC(C)NCC(O)c1ccc(O)c(O)c1 (stereo unspecified) [ISOPROTERENOL] in the records?
**A:** 13.3

====

Organism: Rattus norvegicus
Protocol details: DrugMatrix - Regimen: Daily Repeat
Format: toxicity, organism-based, Sprague-Dawley
Design: regimen Daily Repeat, gender Male, age 6-8 weeks
Test conditions: in vivo, po, 0 mg/kg, 72 h, tissue Plasma, route oral GAVAGE, dose level Control, time 3 day, […]
Endpoint name: LACTATE DEHYDROGENASE (u/L)
Just the number in u/L, nothing appended.

These solved cases illustrate the format of a correct answer.
1. Clc1ccc(COC(Cn2ccnc2)c2ccc(Cl)cc2Cl)cc1 (centres undefined)	115
2. CC(C)(C)NC(=O)[C@H]1CC[C@H]2[C@@H]3CC[C@H]4NC(=O)C=C[C@]4(C)[C@H]3CC[C@]12C [FINASTERIDE]	140.33
3. COc1cc(N)c(Cl)cc1C(=O)NC1CCN(CCCOc2ccc(F)cc2)CC1OC (centres undefined) [CISAPRIDE]	101.83

Could you now consider this next molecule?
**Q:** Which value of LACTATE DEHYDROGENASE has been reported for `CO[C@H]1/C=C/O[C@@]2(C)Oc3c(C)c(O)c4c(O)c(c(/C=N/N5CCN(C6CCCC6)CC5)c(O)c4c3C2=O)NC(=O)/C(C)=C\C=C\[C@H](C)[C@H](O)[C@@H](C)[C@@H](O)[C@@H](C)[C@H](OC(C)=O)[C@@H]1C` in the records?
**A:** 112.33
